Hey, just so you know, these numbers are from patent US7041698B2.

tested_target: HCV NS3/4A protease complex (UniProt P27958, C1454S/C1711G, species not given)
Construct: fused on or other part: Three-lysine solubilising tail at the C-terminus of NS4A
method_notes: Recombinant HCV NS3/4A protease complex FRET peptide assay (strain not stated)
Type: biochemical
settings: HCV NS3/4A protease enzyme assay, read-out: IC50 range
assay_metric: IC50

{"compound": "C=CC1C[C@]1(NC(=O)[C@@H]1C[C@@H](OC(=O)NCc2ccc(OC)cc2)CN1C(=O)[C@@H](NC(=O)OC(C)(C)C)C(C)(C)C)C(=O)NS(=O)(=O)C1CC1 (some centres unmarked) [Compound 11]", "assay_metric": "IC50", "reported_result": "100 to 1000 nM"}

Task item: What measured IC50 goes with C=CC1C[C@]1(NC(=O)[C@@H]1C[C@@H](OC(=O)Nc2cc(C)ccc2-n2nccn2)CN1C(=O)[C@@H](NC(=O)OC(C)(C)C)C(C)(C)C)C(=O)NS(=O)(=O)C1CC1 (some centres unmarked) [Compound 97] ?
Reply: < 100 nM

Task item: Same question, C=C[C@@H]1C[C@]1(NC(=O)[C@@H]1C[C@@H](OC(=O)N2CCc3ccccc3C2)CN1C(=O)[C@@H](NCC1CC1)C(C)(C)C)C(=O)NS(=O)(=O)C1CC1 [Compound 101] this time
Reply: < 100 nM

Task item: Same question, C=CC1C[C@]1(NC(=O)[C@@H]1C[C@@H](OC(=O)N(CCCC)CCCC)CN1C(=O)[C@@H](NC(=O)OC(C)(C)C)C(C)(C)C)C(=O)NS(=O)(=O)C1CC1 (some centres unmarked) [Compound 46] this time
Reply: 100 to 1000 nM

Task item: Same question, C=C[C@@H]1C[C@]1(NC(=O)[C@@H]1C[C@@H](OC(=O)Nc2cc(C(F)(F)F)ccc2-n2cccn2)CN1C(=O)[C@@H](NC(=O)OC(C)(C)C)C(C)(C)C)C(=O)NS(=O)(=O)C1CC1 [Compound 100] this time
Reply: < 100 nM
